# Tested on: Integrin alpha-IIb/beta-3 (Homo sapiens, UniProt P05106+P08514)
# Sequence (P05106 27-788 limits assumed): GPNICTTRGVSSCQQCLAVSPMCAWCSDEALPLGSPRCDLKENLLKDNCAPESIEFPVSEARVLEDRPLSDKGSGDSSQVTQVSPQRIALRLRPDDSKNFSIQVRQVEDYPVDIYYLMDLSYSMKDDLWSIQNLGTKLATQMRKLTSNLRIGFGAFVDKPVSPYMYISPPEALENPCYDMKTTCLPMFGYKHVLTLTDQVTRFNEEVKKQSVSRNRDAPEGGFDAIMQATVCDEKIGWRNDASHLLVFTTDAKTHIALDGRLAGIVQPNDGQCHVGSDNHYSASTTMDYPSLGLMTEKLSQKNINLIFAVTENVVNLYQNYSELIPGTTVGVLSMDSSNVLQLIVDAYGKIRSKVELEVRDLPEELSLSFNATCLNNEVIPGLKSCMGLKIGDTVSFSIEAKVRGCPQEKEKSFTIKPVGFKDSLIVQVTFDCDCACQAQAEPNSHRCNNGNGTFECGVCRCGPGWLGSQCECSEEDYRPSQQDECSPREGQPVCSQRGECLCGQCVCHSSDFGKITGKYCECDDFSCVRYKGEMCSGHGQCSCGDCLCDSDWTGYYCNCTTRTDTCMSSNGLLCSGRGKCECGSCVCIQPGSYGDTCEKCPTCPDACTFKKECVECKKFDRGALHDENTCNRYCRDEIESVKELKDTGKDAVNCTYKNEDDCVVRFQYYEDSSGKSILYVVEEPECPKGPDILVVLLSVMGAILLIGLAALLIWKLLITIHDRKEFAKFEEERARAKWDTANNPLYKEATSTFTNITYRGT
# Sequence (P08514 32-887 limits assumed): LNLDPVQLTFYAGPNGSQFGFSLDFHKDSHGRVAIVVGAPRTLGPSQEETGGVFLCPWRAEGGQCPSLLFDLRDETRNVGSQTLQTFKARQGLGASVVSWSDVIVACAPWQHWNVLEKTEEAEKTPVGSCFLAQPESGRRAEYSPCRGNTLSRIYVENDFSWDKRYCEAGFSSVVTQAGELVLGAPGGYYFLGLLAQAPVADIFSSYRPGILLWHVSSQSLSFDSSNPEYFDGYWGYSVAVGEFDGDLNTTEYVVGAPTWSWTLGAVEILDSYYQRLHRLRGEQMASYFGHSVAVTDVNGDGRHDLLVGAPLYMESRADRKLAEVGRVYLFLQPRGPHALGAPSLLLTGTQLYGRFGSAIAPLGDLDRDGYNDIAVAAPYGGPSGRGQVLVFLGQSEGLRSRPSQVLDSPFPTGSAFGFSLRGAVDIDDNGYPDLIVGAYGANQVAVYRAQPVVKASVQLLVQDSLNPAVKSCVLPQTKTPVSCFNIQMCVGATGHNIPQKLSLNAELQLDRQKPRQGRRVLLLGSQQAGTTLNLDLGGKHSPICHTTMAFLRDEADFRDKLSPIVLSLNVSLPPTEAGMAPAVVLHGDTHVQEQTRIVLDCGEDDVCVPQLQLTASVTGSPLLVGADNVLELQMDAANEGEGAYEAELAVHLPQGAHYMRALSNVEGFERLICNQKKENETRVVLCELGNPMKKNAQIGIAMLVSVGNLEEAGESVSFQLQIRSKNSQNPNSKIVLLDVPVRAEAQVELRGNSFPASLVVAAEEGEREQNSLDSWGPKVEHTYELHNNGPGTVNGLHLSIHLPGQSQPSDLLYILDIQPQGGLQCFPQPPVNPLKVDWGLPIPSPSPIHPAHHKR
# Sequence (P08514 891-1039 limits assumed): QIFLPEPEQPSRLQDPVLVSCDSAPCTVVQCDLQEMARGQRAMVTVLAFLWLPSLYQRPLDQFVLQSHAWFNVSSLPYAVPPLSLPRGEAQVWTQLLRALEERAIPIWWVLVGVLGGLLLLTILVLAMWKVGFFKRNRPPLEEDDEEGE
# Assay notes: Inhibition of human integrin alpha2b beta3 receptor by fibrinogen competitive binding assay
# Type: protein-complex assay
pIC50: −log10 of the molar value.
pIC50 by entry:
Measured endpoint: pIC50

1) Nc1cc(C[C@H](NS(=O)(=O)c2cccc(C(F)(F)F)c2)C(=O)O)ccc1OCCCCNc1ccccn1 7.15
2) Nc1cc(C[C@H](NS(=O)(=O)c2cccc(C(F)(F)F)c2)C(=O)O)ccc1OCCCN=C1NCCCN1 7.67
3) Cc1ccnc(NCCCCOc2ccc(C[C@H](NS(=O)(=O)c3cccc(C(F)(F)F)c3)C(=O)O)cc2NC(=O)COCCOCCOCCN)c1 7.55
4) NCCCOc1ccc(C[C@H](NS(=O)(=O)c2cccc(C(F)(F)F)c2)C(=O)O)cc1N 6.37
5) NCCCCOc1ccc(C[C@H](NS(=O)(=O)c2cccc(C(F)(F)F)c2)C(=O)O)cc1N 6.81
6) Cc1ccnc(NCCCCOc2ccc(C[C@H](NS(=O)(=O)c3cccc(C(F)(F)F)c3)C(=O)O)cc2NC(=O)COCCOCCOCCOCCOCCOCCN)c1 7.42
7) CC(=O)Nc1cc(C[C@H](NS(=O)(=O)c2cccc(C(F)(F)F)c2)C(=O)O)ccc1OCCCc1ccc2c(n1)NCCC2 7.15
8) N=C(N)NCCCCOc1ccc(C[C@H](NS(=O)(=O)c2cccc(C(F)(F)F)c2)C(=O)O)cc1N 8.14

###

IC50 by entry:
# Tested on: Integrin alpha-IIb/beta-3 (Homo sapiens, UniProt P05106+P08514)
# Assay notes: Inhibition of human integrin alpha2b beta3 receptor by fibrinogen competitive binding assay
Measured endpoint: IC50 (nM)

1. NC(N)=NCCCOc1ccc(C[C@H](NS(=O)(=O)c2cccc(C(F)(F)F)c2)C(=O)O)cc1N 27
2. COCCOCCOCCOCC(=O)Nc1cc(C[C@H](NS(=O)(=O)c2cccc(C(F)(F)F)c2)C(=O)O)ccc1OCCCCNc1cc(C)ccn1 61
3. CC(=O)Nc1cc(C[C@H](NS(=O)(=O)c2cccc(C(F)(F)F)c2)C(=O)O)ccc1OCCCCNc1cc(C)ccn1 38
4. Cc1ccnc(NCCCCOc2ccc(C[C@H](NS(=O)(=O)c3cccc(C(F)(F)F)c3)C(=O)O)cc2N)c1 106
5. Nc1cc(C[C@H](NS(=O)(=O)c2cccc(C(F)(F)F)c2)C(=O)O)ccc1OCCCCN=C1NCCCN1 101
6. Nc1cc(C[C@H](NS(=O)(=O)c2cccc(C(F)(F)F)c2)C(=O)O)ccc1OCCCNc1ccccn1 36
7. Nc1cc(C[C@H](NS(=O)(=O)c2cccc(C(F)(F)F)c2)C(=O)O)ccc1OCCCCc1ccc2c(n1)NCCC2 355
8. Cc1cccc(NCCCCOc2ccc(C[C@H](NS(=O)(=O)c3cccc(C(F)(F)F)c3)C(=O)O)cc2N)n1 121
9. Nc1cc(C[C@H](NS(=O)(=O)c2cccc(C(F)(F)F)c2)C(=O)O)ccc1OCCCc1ccc2c(n1)NCCC2 141

###

# Species: Homo sapiens
# Assay notes: Selectivity index, ratio of IC50 for human integrin alpha2b beta3 receptor to IC50 for human integrin alphav beta3 receptor
Our labelling divides records by Ratio IC50 into ranges: bin A = under 30, bin B = from 30 up to 100, bin C = 100 and over

1. NCCCCOc1ccc(C[C@H](NS(=O)(=O)c2cccc(C(F)(F)F)c2)C(=O)O)cc1N bin A
2. NCCCOc1ccc(C[C@H](NS(=O)(=O)c2cccc(C(F)(F)F)c2)C(=O)O)cc1N bin A
3. Nc1cc(C[C@H](NS(=O)(=O)c2cccc(C(F)(F)F)c2)C(=O)O)ccc1OCCCNC1=NCCCN1 bin A
4. Nc1cc(C[C@H](NS(=O)(=O)c2cccc(C(F)(F)F)c2)C(=O)O)ccc1OCCCCNC1=NCCCN1 bin C
5. N=C(N)NCCCCOc1ccc(C[C@H](NS(=O)(=O)c2cccc(C(F)(F)F)c2)C(=O)O)cc1N bin A
6. Nc1cc(C[C@H](NS(=O)(=O)c2cccc(C(F)(F)F)c2)C(=O)O)ccc1OCCCCNc1ccccn1 bin B
7. Nc1cc(C[C@H](NS(=O)(=O)c2cccc(C(F)(F)F)c2)C(=O)O)ccc1OCCCCc1ccc2c(n1)NCCC2 bin C
8. CC(=O)Nc1cc(C[C@H](NS(=O)(=O)c2cccc(C(F)(F)F)c2)C(=O)O)ccc1OCCCc1ccc2c(n1)NCCC2 bin C
9. Nc1cc(C[C@H](NS(=O)(=O)c2cccc(C(F)(F)F)c2)C(=O)O)ccc1OCCCc1ccc2c(n1)NCCC2 bin C
10. CC(=O)Nc1cc(C[C@H](NS(=O)(=O)c2cccc(C(F)(F)F)c2)C(=O)O)ccc1OCCCCNc1cc(C)ccn1 bin B
11. Cc1cccc(NCCCCOc2ccc(C[C@H](NS(=O)(=O)c3cccc(C(F)(F)F)c3)C(=O)O)cc2N)n1 bin B
12. Cc1ccnc(NCCCCOc2ccc(C[C@H](NS(=O)(=O)c3cccc(C(F)(F)F)c3)C(=O)O)cc2N)c1 bin C
13. COCCOCCOCCOCC(=O)Nc1cc(C[C@H](NS(=O)(=O)c2cccc(C(F)(F)F)c2)C(=O)O)ccc1OCCCCNc1cc(C)ccn1 bin C
14. Cc1ccnc(NCCCCOc2ccc(C[C@H](NS(=O)(=O)c3cccc(C(F)(F)F)c3)C(=O)O)cc2NC(=O)COCCOCCOCCN)c1 bin B
15. Cc1ccnc(NCCCCOc2ccc(C[C@H](NS(=O)(=O)c3cccc(C(F)(F)F)c3)C(=O)O)cc2NC(=O)COCCOCCOCCOCCOCCOCCN)c1 bin B
16. N=C(N)NCCCOc1ccc(C[C@H](NS(=O)(=O)c2cccc(C(F)(F)F)c2)C(=O)O)cc1N bin A
